# Tested on: RPMI-8226
# Measurement Protocol: NCI tumour cell line growth inhibition, 48 h
Active and inactive are the calls of the source. No stated cut-off is given here; in the data, active = GI50 up to about 1.1 µM and inactive = higher.
Choose the fitting class; nothing outside True = active, False = inactive is accepted.

Test call for this molecule, please: Cc1ccc(C2OC(COCc3ccc(Cl)cc3)C(OCc3ccc(Cl)cc3)C2O)cc1 (configuration not stated)
False

Hello, I am checking results. What call was entered for Cc1ccc(CN2CCN(Cc3ccc(C)o3)C(C)C2)o1 (configuration not stated) ?
False

Kindly provide the recorded test outcome for the following molecule: O=C1CC(Sc2nc3ccc(I)cc3c(=O)n2Cc2ccccc2)C(=O)NN1 (configuration not stated)
False

State the result this test recorded for C/C(=N\NC(=S)N1CCN(C2CCCCCC2)CC1)c1ccccn1 .
True

Any idea what this test logged for C[C@@H]1C[C@H](O)[C@]2(O)O[C@@H]3C[C@@]4(C=O)[C@@H](CC[C@@H]5[C@@H]4CC[C@]4(C)[C@@H](C6=CC(=O)OC6)CC[C@]54O)C[C@H]3O[C@@H]2O1 [CALOTROPIN] ?
True

Outcome? CCOC(=O)c1cnc(-n2[nH]c3c(c2=O)CCCC3)[nH]c1=O
False

What was the test verdict on C/C(=N\NC(=O)c1ccncc1)c1ccccc1Cl ?
False

Which result was noted for this molecule in the test: O=S(=O)(Cc1nc2ccccc2s1)c1nc2ccccc2s1
False

Lab log entry: COc1ccc(/C=N/N=C(\N)NO)c(OC)c1OC — outcome as called in the assay?
False

# outcome recorded in this test, key = COc1ccc(CCc2ccccc2CC(=O)O)cc1
False

Which result was noted for this molecule in the test: C/C(=C\c1ccccc1)C(=O)c1c(C)cc(C)cc1C
False

Recorded test call requested for COC(=O)[C@@H]1C[C@]2(Br)c3ccccc3N(S(=O)(=O)c3ccccc3)[C@@H]2N1C(=O)OC
False

What call does the record list for O=C(O)COc1ccc(C(=O)/C(SS/C(C(=O)c2ccc(OCC(=O)O)c(Cl)c2Cl)=C2\C=C(c3ccccc3Cl)SS2)=C2/C=C(c3ccccc3Cl)SS2)c(Cl)c1Cl ?
False

Test call for this molecule, please: O=C(O)NC(c1ccccc1)C(NC(=O)c1ccccc1)c1ccccc1 (configuration not stated)
False

Please let me know the test result on file for Cc1c(-c2ccccc2)[nH]n(C2=NCCN2)c1=O .
False

Each molecule tested received a call. Report the one for Cc1c(C(=O)/C=C/c2ccc3c(c2)OCO3)[n+]([O-])c2ccccc2[n+]1[O-] .
False

// outcome(item) with item = CN1COCc2cc3cc4c(cc3nc21)OCCO4
False

Hi team, can someone confirm the assay call for Cn1c2c(c3ccccc31)CCN(CCCCN1CCN(c3ccccc3)CC1)C2=O ?
False

Answer briefly: the call reported for COc1cc2c(NCCCCCCO[N+](=O)[O-])ncnc2c(OC)c1OC in this assay.
False

Dear all, I need the recorded test outcome for O=C(NCCCCNCCCNC(=O)C(F)(F)F)C(F)(F)F , thank you.
False

What did the test return for COc1cc(/C=C2/SC(c3ccccc3)N(c3ccc(Cl)cc3)C2=O)cc(OC)c1OC (configuration not stated) ?
False

So what was the verdict on CC(C)(C)c1ccc(C(C)(C)C)c(N2C(=O)[C@@H]3[C@@H]4C=C[C@@H](C4)[C@]3(C)C2=O)c1 in this test?
False

Test call, this molecule: CCC(C)CC(C)CC(C)/C=C(\C)C1=C(C)CC(C)(O)O1 (configuration not stated)
False

// return assay outcome for O=C(NCCCCCCCCNC(=O)c1cccc2ccccc12)c1cccc2ccccc12
False

State the result this test recorded for CN(C)CCNCCN .
False

Which outcome was assigned to O=C(O)CSc1nnc(CCCCCCCCc2nnc(SCC(=O)O)o2)o1 in this test?
False

Test call for this molecule, please: O=C1C(Cl)=C(Cl)C(=O)N1c1cccc(C(F)(F)F)c1
False

Would you mind telling me which call this test gave O=C(OCc1ccccc1)c1ccccc1-c1c2ccc(=O)cc-2oc2cc(OCc3ccccc3)ccc12 ?
False

Look up the recorded call for CCCCCCCC1C(C)c2c([nH]c3ccccc23)C2C(=O)N(c3ccc(OC)cc3)C(=O)C21 (configuration not stated) in this test.
False

Would you mind telling me which call this test gave COCC1OC(OC2C3=C(C(C)C)CCC3(C)/C=C3\C(CCC3(O)COC)C(C)C2O)C(O)C2OC3OC12OC3(C)C1CO1 (configuration not stated) ?
False

Any idea what this test logged for Cn1c2ccccc2n2c(=O)c3c(c(C#N)c12)CCCC3 ?
False

What did the test return for CC(C)=CCC/C(C)=C/Cc1c2c(c3oc(-c4ccc(O)c(O)c4)c(O)c(=O)c3c1O)C=CC(C)(C)O2 ?
False

====

# Test system: COLO 205
# Measurement Protocol: NCI tumour cell line growth inhibition, 48 h
Active and inactive are the calls of the source. Cut-off read from the data, not from the text of the source: active = GI50 up to about 1.1 µM and inactive = higher. Starred links: 1 amine or outer side, 2 acyl side, 3 side chain; linkers in the order of their positions; H or OH if unused. Positions of bridges follow the written chain, without caps; N, C: chain ends. Non-standard residues stand in square brackets, D forms with d. Residues, ends and D or L forms follow the SMILES beside them. Chains are numbered I, II in the order given. Actinocin(9to1) = Cc1c2oc3c(C)ccc(C(=O)[*:1])c3nc-2c(C(=O)[*:2])c(N)c1=O; NMeV = CN[CH](C(=O)O)C(C)C; Sar = CNCC(=O)O
In this exercise, the only acceptable responses are Y = active, N = inactive

Recorded test call requested for Cc1cc2oc(-c3ccccc3)c(C)c(=O)c2c2c1OC(C)(C)S2
N

GET /call?item= CC1(C)CCC(C)(C)C1C(=O)NC(O)C(=O)O (stereo not given) returns the recorded outcome of this test.
N

Fill in: this test's call for CC(=O)OCC1OC(n2cc(F)c(=O)[nH]c2=O)C(OC(C)=O)C1OC(C)=O (stereo not given) is ___
N

Answer briefly: the call reported for CC(C)(C)c1ccc(C(C)(C)C)c(N2C(=O)[C@@H]3[C@@H]4C=C[C@@H](C4)[C@]3(C)C2=O)c1 in this assay.
N

I'd appreciate the recorded outcome for Cc1c2oc3c(C)ccc(C(=O)NC4C(=O)NC(Cc5ccc(O)cc5)C(=O)N5CCCC5C(=O)N(C)CC(=O)N(C)C(C(C)C)C(=O)OC4C)c3nc-2c(C(=O)NC2C(=O)NC(Cc3ccc(O)cc3)C(=O)N3CCCC3C(=O)N(C)CC(=O)N(C)C(C(C)C)C(=O)OC2C)c(N)c1=O (stereo not given) (I: TYP[Sar][NMeV] / II: TYP[Sar][NMeV]; ester I:1-I:C, II:1-II:C; linker I:N-II:N via Actinocin(9to1); configuration not given here) from this test.
Y

Tell me the assay call for O=C(OCc1ccccc1)N1CCCc2c(n(S(=O)(=O)c3ccccc3)c3ccccc23)C1 please.
N

In this assay, the call recorded for COc1cc2ccc(C(=O)O)cc2cc1OC was what?
N

Could you kindly confirm the outcome this assay logged for O=C(NCCCCCCCCNC(=O)c1cccc2ccccc12)c1cccc2ccccc12 ?
N

Per the assay record, what outcome was assigned to CCOC(C)OCC#CCCBr (stereo not given) ?
N

Any idea what this test logged for O=C1CCC(NC(=O)c2ccccc2)C(=O)N1 (stereo not given) ?
N

GET /call?item= Cc1cc2c3c(ccc4[nH]cc(c43)CN2c2ccc(NS(C)(=O)=O)cc2)n1 returns the recorded outcome of this test.
N

Please share the test call associated with NS(=O)(=O)c1ccc(-n2c(-c3cccs3)nc3ccc(I)cc3c2=O)cc1 .
N

Answer briefly: the call reported for Cc1nc2ccccc2n1Cc1nnc2n1N=C(c1ccccc1)CS2 in this assay.
N

Query: recorded result category for CCOc1ccccc1-c1nc2c(s1)C(=O)c1ccccc1C2=O in this test
N

Per the assay record, what outcome was assigned to CCC(CCCCC1CC[C@H]2CC(=O)C[C@@H]12)OC (stereo not given in full) ?
N

====

# System: A498
# Measurement Protocol: NCI tumour cell line growth inhibition, 48 h
The source made the active and inactive calls. Cut-off read from the data, not from the text of the source: active = GI50 up to about 1.1 µM and inactive = higher.
Answer each item with its documented GI50.

For reference, reported GI50 for Cc1nc2ccccc2c(=O)n1/N=C(\N=N\c1ccccc1Cl)c1ccccc1Cl stands at 43 µM (inactive)

# GI50 (molecule: COc1ccc2c(c1)CCCN1CCc3ccccc3C21 (stereo not drawn) ) is 55.3 µM (inactive)

Query CSc1nc2c(c(=O)[nH]1)N=C(c1ccccc1)CC(c1ccccc1)N2 (stereo not drawn) yields GI50 of 83.4 µM (inactive)

Given item Cn1c(=O)c2c(ncn2Cc2ccc(O)c([N+](=O)[O-])c2)n(C)c1=O , the value recorded as its GI50 is > 100 µM (inactive)

In plain terms, COc1cc2c(cc1OCCCC(=O)Nc1cc(C(=O)Nc3cc(C(=O)Nc4cc(C(=O)NCCCN(C)C)n(C)n4)n(C)c3)n(C)c1)N=CC1CCCN1C2=O (stereo not drawn) has a documented GI50 of 29.2 µM (inactive)

Looking up NCCN1CCCCCc2ccccc21 , I found its GI50 recorded as > 10 µM (inactive)

GI50 recorded for this molecule, CC(C)/C(Cl)=N\OC(=O)Nc1cccc(Cl)c1 , is 17.4 µM (inactive)

The reported value for COc1ccc2oc(=O)c3c(c2c1C)OC(C)(C)C=C3 in terms of GI50 is > 100 µM (inactive)
